Property: remaining activity at 30 µM; scope: individual compounds
- Target Or System: human mAChR M4 (Homo sapiens, UniProt P08173)
- Construct: expressed in transfected cells; host or cells: CHO-K1 (ATCC), co-transfected with chimeric G protein Gqi5
- Sequence (P08173 whole entry): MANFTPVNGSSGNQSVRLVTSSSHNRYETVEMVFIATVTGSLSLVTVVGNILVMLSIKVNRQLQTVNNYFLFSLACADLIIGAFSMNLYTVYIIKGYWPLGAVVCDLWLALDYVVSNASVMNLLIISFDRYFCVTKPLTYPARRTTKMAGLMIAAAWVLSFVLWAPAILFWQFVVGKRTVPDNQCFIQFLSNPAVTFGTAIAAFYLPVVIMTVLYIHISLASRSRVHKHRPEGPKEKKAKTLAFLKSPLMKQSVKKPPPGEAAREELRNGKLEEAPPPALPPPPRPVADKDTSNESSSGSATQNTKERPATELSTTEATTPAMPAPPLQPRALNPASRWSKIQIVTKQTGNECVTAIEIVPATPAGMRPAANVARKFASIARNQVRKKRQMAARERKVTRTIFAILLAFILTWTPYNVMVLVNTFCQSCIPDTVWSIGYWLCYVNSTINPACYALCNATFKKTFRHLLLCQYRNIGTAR
- Protocol Notes: mAChR M4 cell-based functional assay (calcium flux, antagonism of EC80 acetylcholine response, M4/Gqi5/CHO-K1 cells)
- Measurement Setup: CHO-K1, % ACh maximum at 30 μM; read-out: Human M4 Emin
Readout Label: remaining activity at 30 µM

[2H]C([2H])(C1CCCOCC1)N1C[C@H]2C[C@H](Nc3ccc(-c4cnccc4C(F)(F)F)nn3)C[C@H]2C1 (stereo partly drawn) :: 4%
[2H]C1([2H])CC(C([2H])([2H])N2C[C@H]3C[C@H](Nc4ccc(-c5cnccc5C(F)(F)F)nn4)C[C@@]3(C)C2)CC([2H])([2H])O1 (racemic) :: 3%
[2H]C([2H])(C1CCOCC1)N1C[C@H]2C[C@H](Nc3nnc(-c4cnccc4C(F)(F)F)c4sccc34)C[C@H]2C1 :: 3%
